Kindly supply the reported viability, T/C values for the records listed here.
tested on: 126254-015-R-J1-PDC complex spheroid growth, % test/control; assay: Anticancer human tumor 126254-015-R-J1-PDC patient-derived soft tissue sarcoma cell line growth inhibition [Asc]; conditions: second compound 0.316 µM; first compound 0.1 µM; hits give low values;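 also: spheroids exposed to compound for seven days; 100% = DMSO vehicle control wells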
Report the figure in % without appending any unit label.

Reported viability, T/C of Cn1ncnc1[C@H]1c2n[nH]c(=O)c3cc(F)cc(c23)N[C@@H]1c1ccc(F)cc1 + Cc1c(S(C)(=O)=O)c(-c2cc(F)cc(N3CCN(c4ccc(NS(=O)(=O)c5ccc(NC(CCN6CCC(C(=O)OCCCP(=O)(O)O)CC6)CSc6ccccc6)c(S(=O)(=O)C(F)(F)F)c5)cc4)CC3)c2)c(-c2ccc(Cl)cc2)n1C(C)C : 58.5

Reported viability, T/C of C=C(F)C(=O)N1CCN(c2nc(OCC3CCCN3C)nc3c2CCN(c2cccc4cccc(Cl)c24)C3)CC1CC#N (configuration not stated) + Cc1c(S(C)(=O)=O)c(-c2cc(F)cc(N3CCN(c4ccc(NS(=O)(=O)c5ccc(NC(CCN6CCC(C(=O)OCCCP(=O)(O)O)CC6)CSc6ccccc6)c(S(=O)(=O)C(F)(F)F)c5)cc4)CC3)c2)c(-c2ccc(Cl)cc2)n1C(C)C : 91.2

Reported viability, T/C of O=C(c1cc(Cc2n[nH]c(=O)c3ccccc23)ccc1F)N1CCN(C(=O)C2CC2)CC1 + Cc1c(S(C)(=O)=O)c(-c2cc(F)cc(N3CCN(c4ccc(NS(=O)(=O)c5ccc(NC(CCN6CCC(C(=O)OCCCP(=O)(O)O)CC6)CSc6ccccc6)c(S(=O)(=O)C(F)(F)F)c5)cc4)CC3)c2)c(-c2ccc(Cl)cc2)n1C(C)C : 79.3

Reported viability, T/C of COc1c(OCCCN2CCOCC2)ccc2c3n(c(=NC(=O)c4cnc(N)nc4)nc12)CCN3 + Cc1c(S(C)(=O)=O)c(-c2cc(F)cc(N3CCN(c4ccc(NS(=O)(=O)c5ccc(NC(CCN6CCC(C(=O)OCCCP(=O)(O)O)CC6)CSc6ccccc6)c(S(=O)(=O)C(F)(F)F)c5)cc4)CC3)c2)c(-c2ccc(Cl)cc2)n1C(C)C : 29.7

Reported viability, T/C of O=C(c1ccc(F)c(F)c1Nc1ccc(I)cc1F)N1CC(O)([C@@H]2CCCCN2)C1 + Cc1c(S(C)(=O)=O)c(-c2cc(F)cc(N3CCN(c4ccc(NS(=O)(=O)c5ccc(NC(CCN6CCC(C(=O)OCCCP(=O)(O)O)CC6)CSc6ccccc6)c(S(=O)(=O)C(F)(F)F)c5)cc4)CC3)c2)c(-c2ccc(Cl)cc2)n1C(C)C : 83.4

Reported viability, T/C of O=C(c1ccc(F)c(F)c1Nc1ccc(I)cc1F)N1CC(O)([C@@H]2CCCCN2)C1 + CNC(C)C(=O)NC1CN(S(=O)(=O)c2cccc(S(=O)(=O)N3CCC4CCC(C(=O)NC(c5ccccc5)c5ccccc5)N4C(=O)C(NC(=O)C(C)NC)C3)c2)CCC2CCC(C(=O)NC(c3ccccc3)c3ccccc3)N2C1=O : 51.3

Reported viability, T/C of C=CC(=O)N1CCN(c2nc(=O)n(-c3c(C)ccnc3C(C)C)c3nc(-c4c(O)cccc4F)c(F)cc23)C(C)C1 (configuration not stated) + Cc1c(S(C)(=O)=O)c(-c2cc(F)cc(N3CCN(c4ccc(NS(=O)(=O)c5ccc(NC(CCN6CCC(C(=O)OCCCP(=O)(O)O)CC6)CSc6ccccc6)c(S(=O)(=O)C(F)(F)F)c5)cc4)CC3)c2)c(-c2ccc(Cl)cc2)n1C(C)C : 86.2
